Data provenance is ChEMBL document CHEMBL6083179.

# SYSTEM: Glucagon-1 (Xenopus laevis, UniProt O42143)
# ASSAY DETAILS: Inhibition of Xenopus laevis GLP-1C (1 to 30 residues)
MEASURE: IC50 (nM)

| SUBSTANCE | OBSERVED RESULT |
| --- | --- |
| H-HAEGTFTNDMTNYLEEKAAKEFVGWLIKGRPK-OH | 43.4 |
